Method: CREB reporter modulators without forskolin, primary screen, cell-based, PC12, CRE-LacZ reporter, unstimulated (AID 1145)
Particulars: no forskolin, luminescence, 4.5 h, higher = more signal, called active from +8 up or from −8 down

>  <Query smiles>
O=C(NN=C1C[C@@H](O)[C@@H](O)[C@@H]2[C@@H]3C(=O)N(C4CCCCC4)C(=O)[C@@H]3CC[C@H]12)OCc1ccccc1

>  <z-score>
0.338

$$$$
>  <Query smiles>
CC(CCN1CCc2nc(-c3ccccc3)c(-c3ccccc3)cc2C1)=NOC[C@@H](O)COCc1ccco1

>  <z-score>
-0.878

$$$$
>  <Query smiles>
CCOC(=O)C1=NO[C@]2(C=C(Br)C3(OCCCO3)[C@H]3O[C@H]32)C1

>  <z-score>
-0.254

$$$$
>  <Query smiles>
C#CCCCON=C1C[C@@H](O)[C@@H](O)[C@@H]2[C@@H]3C(=O)N(C(C)(C)C)C(=O)[C@@H]3CC[C@H]12

>  <z-score>
0.608

$$$$
>  <Query smiles>
Cc1ccc(S(=O)(=O)OC[C@H]2CN3[C@H](c4ccc(Br)cc4)[C@@H](C)CC[C@H]3C(=O)O2)cc1

>  <z-score>
2.01

$$$$
>  <Query smiles>
CC(=O)OC[C@H]1O[C@H](C#Cc2ccccc2)C=C[C@@H]1OC(C)=O

>  <z-score>
-0.256

$$$$
>  <Query smiles>
COc1cccc([C@H]2Oc3ccc(OC)cc3C(=NO[C@@H]3O[C@H](COC(C)=O)[C@@H](OC(C)=O)[C@H](OC(C)=O)[C@H]3OC(C)=O)[C@@H]2O)c1

>  <z-score>
0.336

$$$$
>  <Query smiles>
CC=CC1=C(CO)C(=O)[C@@H]2O[C@@H]2C1=O

>  <z-score>
0.0178

$$$$

====

Method: PSAC antagonists in infected red cells, primary screen, cell-based, P. falciparum Indochina, OD700, 2 h (AID 1155);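 note: lysis reports solute entry through the parasite surface anion channel PSAC; channel blockers reduce lysis of infected cells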
Particulars: P. falciparum Indochina infected erythrocytes, osmotic lysis OD700; higher = more signal, called active from +8 up or from −8 down
Response field class: string, computed from recorded z-score by ranges lower band = under -0.03, central band = from -0.03 up to 0.6, upper band = 0.6 and over

>  <Compound>
COc1ccc(O[C@@H]2[C@H](O)CO[C@@H]2C=Cc2ccccc2)cc1

>  <Class label>
lower band

$$$$
>  <Compound>
CO[C@@H]1COC(=O)CC=C[C@H](C)[C@H](OC)COC(=O)[C@H](C)NC(=O)CC=C[C@H]1C

>  <Class label>
central band

$$$$
>  <Compound>
CCOC(=O)C1=NO[C@@]2(C=C(Br)C3(OCCCO3)[C@H]3O[C@H]32)C1

>  <Class label>
central band

$$$$
>  <Compound>
CC(CCN1CCc2nc(-c3ccccc3)c(-c3ccccc3)cc2C1)=NOC[C@@H](O)[C@H]1O[C@@H]2OC(C)(C)O[C@@H]2[C@H]1O

>  <Class label>
central band

$$$$
>  <Compound>
CCOC(=O)[C@H](Cc1ccccc1)NC(=O)CCC1CC(OC(=O)NCCc2ccc(F)cc2)CC2(CCCC(COC(=O)NCc3ccccc3)O2)O1 (some centres undefined)

>  <Class label>
lower band

$$$$
>  <Compound>
CCOC(=O)[C@H](CC(C)C)NC(=O)CCC1CC(OC(=O)NCc2cccc3ccccc23)CC2(CCCC(COC(=O)NCc3ccncc3)O2)O1 (some centres undefined)

>  <Class label>
upper band

$$$$
>  <Compound>
C=CC[C@@H]1C=C[C@H](ON=C(C)CCC(=O)OC[C@H]2O[C@H](C#Cc3ccccc3)C=C[C@@H]2Oc2ccc(C)cc2)[C@@H](CO)O1

>  <Class label>
upper band

$$$$
>  <Compound>
CCOC(=O)[C@H](CC(C)C)NC(=O)CCC1CC(OC(=O)NCc2ccc3c(c2)OCO3)CC2(CCCC(COC(=O)NCC(c3ccccc3)c3ccccc3)O2)O1 (some centres undefined)

>  <Class label>
central band

$$$$
>  <Compound>
C=COC[C@@H]1CN2[C@@H](CC[C@@H](C)[C@@H]2c2ccc(Br)cc2)C(=O)O1

>  <Class label>
lower band

$$$$
>  <Compound>
COC(=O)[C@@H]1CC[C@H](C)[C@@H](c2ccc(C)cc2)N1C(=O)c1ccc(C=NO[C@H](C)c2cn([C@H](CO)Cc3ccccc3)nn2)cc1

>  <Class label>
upper band

$$$$
>  <Compound>
CC[C@@H](c1ccccc1)n1c(=O)n2n(c1=O)[C@H]1[C@H](O)[C@@H]3O[C@@H]3C(=NOC[C@@H](O)COCc3ccco3)[C@H]1CC2

>  <Class label>
lower band

$$$$
>  <Compound>
COCOc1ccc(Br)cc1C(=O)[C@@H]1O[C@H]1c1cccc(OC)c1

>  <Class label>
upper band

$$$$
>  <Compound>
CC(C)=CCCC(C)=CCON=C1C[C@@H](O)[C@@H](O)[C@@H]2[C@@H]3C(=O)N(Cc4ccccc4)C(=O)[C@@H]3CC[C@H]12

>  <Class label>
lower band

$$$$
